The measured values listed here are drawn from the supplement of paper PMC10567573.

B1: GFOD1 (parent)
chain: EEAEELAKEMSVPFYTSRIDEVLL

Variants of: B1
ASSAY COMMENT: protein stability index of a GFP-peptide fusion (GPS, HEK-293T) (PSI 1-6); higher = more stable;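 also: lentivirally expressed fusions sorted by FACS into six bins by GFP to DsRed ratio, PSI derived from sequencing read proportions per bin multiplied by bin number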
EXPERIMENTAL CONDITIONS: c terminus: a fixed tail appended
The threshold is inclusive: protein stability index of exactly 4 counts as Condition met; values below receive Condition not met.

{"MUTATION NAME": "E9N", "QUALITATIVE LABEL": "Condition not met"}
{"MUTATION NAME": "E1L", "QUALITATIVE LABEL": "Condition not met"}
{"MUTATION NAME": "D20A", "QUALITATIVE LABEL": "Condition not met"}
{"MUTATION NAME": "I19V", "QUALITATIVE LABEL": "Condition met"}
{"MUTATION NAME": "P13M", "QUALITATIVE LABEL": "Condition not met"}
{"MUTATION NAME": "E9M", "QUALITATIVE LABEL": "Condition not met"}
{"MUTATION NAME": "P13L", "QUALITATIVE LABEL": "Condition not met"}
{"MUTATION NAME": "E5W", "QUALITATIVE LABEL": "Condition not met"}
{"MUTATION NAME": "Y15G", "QUALITATIVE LABEL": "Condition met"}
{"MUTATION NAME": "F14D", "QUALITATIVE LABEL": "Condition met"}
